Each recorded value in this set is attributed to ChEMBL document CHEMBL1132220.

The following compounds have recorded Ki on Somatostatin receptor type 1 (Homo sapiens).
Sequence (P30872 whole entry): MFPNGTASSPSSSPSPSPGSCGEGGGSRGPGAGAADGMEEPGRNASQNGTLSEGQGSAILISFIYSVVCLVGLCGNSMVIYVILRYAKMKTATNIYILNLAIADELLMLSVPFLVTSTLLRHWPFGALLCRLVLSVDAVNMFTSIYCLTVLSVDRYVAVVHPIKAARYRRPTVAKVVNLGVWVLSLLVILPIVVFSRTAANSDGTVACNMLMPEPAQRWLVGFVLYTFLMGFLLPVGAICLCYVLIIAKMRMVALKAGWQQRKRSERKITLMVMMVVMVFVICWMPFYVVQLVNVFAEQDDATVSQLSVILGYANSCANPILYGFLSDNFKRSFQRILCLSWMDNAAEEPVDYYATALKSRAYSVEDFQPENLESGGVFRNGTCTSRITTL
Bridge positions count the residues as written; N and C are the ends. Square brackets hold non-standard residues; d marks the D form. Peptide text beside a SMILES is read from it. 2Nal = N[C@@H](Cc1ccc2ccccc2c1)C(=O)O; 3Pal = N[C@@H](Cc1cccnc1)C(=O)O; Nle = CCCC[C@H](N)C(=O)O
Write it as a number; the unit nM goes unstated.

>>> recorded_result("CC(C)[C@@H]1NC(=O)[C@H](CCCCN)NC(=O)[C@@H](Cc2c[nH]c3ccccc23)NC(=O)[C@H](Cc2cccnc2)NC(=O)[C@H](NC(=O)[C@@H](N)Cc2ccc3ccccc3c2)CSSC[C@@H](C(=O)N[C@@H](Cc2ccc(F)cc2)C(N)=O)NC1=O")
1060
>>> recorded_result("CC(C)[C@@H]1NC(=O)[C@H](CCCCN)NC(=O)[C@@H](Cc2c[nH]c3ccccc23)NC(=O)[C@H](Cc2ccccn2)NC(=O)[C@H](NC(=O)[C@@H](N)Cc2c(F)c(F)c(F)c(F)c2F)CSSC[C@@H](C(=O)N[C@@H](Cc2c(F)c(F)c(F)c(F)c2F)C(N)=O)NC1=O")
568
>>> recorded_result("CCCC[C@@H]1NC(=O)[C@H](CCCCN)NC(=O)[C@@H](Cc2c[nH]c3ccccc23)NC(=O)[C@H](Cc2cccnc2)NC(=O)[C@H](NC(=O)[C@@H](N)Cc2ccc3ccccc3c2)CSSC[C@@H](C(=O)N[C@@H](Cc2ccc3ccccc3c2)C(N)=O)NC1=O (H-[2Nal][dC][3Pal][dW]K[Nle]C[2Nal]-NH2; disulfide 2-7)")
845
>>> recorded_result("CC(C)C[C@@H]1NC(=O)[C@H](CCCCN)NC(=O)[C@@H](Cc2c[nH]c3ccccc23)NC(=O)[C@H](Cc2cccnc2)NC(=O)[C@H](NC(=O)[C@@H](N)Cc2ccc3ccccc3c2)CSSC[C@@H](C(=O)N[C@@H](Cc2ccc3ccccc3c2)C(N)=O)NC1=O")
415

Please examine the following record next.
Ask: API: value(readout= Ki, system= Somatostatin receptor type 1 (Homo sapiens), query= C[C@@H](O)[C@@H]1NC(=O)[C@H](CCCCN)NC(=O)[C@@H](Cc2c[nH]c3ccccc23)NC(=O)[C@@H](Cc2ccccn2)NC(=O)C(NC(=O)[C@@H](N)Cc2ccc(Cl)cc2)CSSCC(C(=O)N[C@@H](Cc2ccc3ccccc3c2)C(N)=O)NC1=O (stereo in doubt) )
Result: 1030

====

The following compounds have recorded pKi on UniProtKB P30872.
Formally, pKi is defined as -log10 of the concentration c, with c in mol/L.

>>> recorded_result("CC(C)(C)C[C@@H]1NC(=O)[C@H](CCCCN)NC(=O)[C@@H](Cc2c[nH]c3ccccc23)NC(=O)[C@H](Cc2cccnc2)NC(=O)C(NC(=O)[C@@H](N)Cc2ccc(Cl)cc2)CSSCC(C(=O)N[C@@H](Cc2ccc3ccccc3c2)C(N)=O)NC1=O (stereo in doubt)")
6.62
>>> recorded_result("CC(C)[C@H]1NC(=O)[C@H](CCCCN)NC(=O)[C@@H](Cc2c[nH]c3ccccc23)NC(=O)[C@H](Cc2c[nH]cn2)NC(=O)C(NC(=O)[C@@H](N)Cc2c(F)c(F)c(F)c(F)c2F)CSSCC(C(=O)N[C@@H](Cc2c(F)c(F)c(F)c(F)c2F)C(N)=O)NC1=O (stereo in doubt)")
7.16

Ask: Any idea what pKi was measured for `CC(C)[C@@H]1NC(=O)[C@H](CCCCN)NC(=O)[C@@H](Cc2c[nH]c3ccccc23)NC(=O)[C@H](Cc2ccc(O)cc2)NC(=O)[C@H](NC(=O)[C@@H]2Cc3ccccc3CN2)CSSC[C@@H](C(=O)N2Cc3ccccc3C[C@H]2C(N)=O)NC1=O` ?
Result: 5.99
